Data provenance: patent US20240150475A1

Target: T1, biotinylated extracellular domains of human CD123 with C-terminal Fc tag and Avi tag (bio.hCD123-Fc(kih)-Avi) (human, UniProt P26951 19-303, biotinylated with BirA-GST (Avi tag))
T1 construct: Bought from Evitria; the second Fc chain and the number of CD123 arms are not described; also called biotinylated hCD123; recombinant human CD123 target; not shown: Avi tag
T1 sequence: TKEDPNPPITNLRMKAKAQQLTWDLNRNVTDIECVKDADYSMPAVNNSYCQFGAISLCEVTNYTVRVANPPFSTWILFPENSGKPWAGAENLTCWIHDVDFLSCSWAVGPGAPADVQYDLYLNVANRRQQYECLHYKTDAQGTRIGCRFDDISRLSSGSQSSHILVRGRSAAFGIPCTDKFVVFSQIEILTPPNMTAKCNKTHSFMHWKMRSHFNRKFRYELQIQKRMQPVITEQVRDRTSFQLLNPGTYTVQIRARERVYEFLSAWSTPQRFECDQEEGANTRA
Assay: SPR (ProteOn XPR36), bio.hCD123 immobilised on NLC chip, DARPin in TCE format injected at 50 nM, single trace
Please provide measured Kd for the entries that follow.
One number for each entry, in nM.

Example entries and their recorded answers appear below.
Binder	Unit Abbrev	Kd
DARPin® protein #7 (in TCE format) (designed binder, not shown: small tags and cut ends) MRGSHHHHHHGSDLGKKLLQAARAGQLDEVRELLKAGADVNAKDEYGLTPLHLAAEFGHLEIVEVLLKAGADVNAKDANGHTPLHLAAAYDHLEIVEVLLKAGADVNAKDTSGKTPLHLAAQYGHLEIVEVLLKAGADVNAQDKSGKTPADLAARAGHQDIAEVLQKAA	nM	0.93
DARPin® protein #5 (in TCE format) (designed binder, not shown: small tags and cut ends) MRGSHHHHHHGSDLGKKLLKAALLGQDDEVRELLKAGADVNAKDRFGYTPLHLAAWTGHLEIVEVLLKAGADVNAKDAYGWTPLHIAAHSGHLEIVEVLLKAGADVNAQDLEGETPADLAAAQGHEDIAEVLQKAA	nM	8.5

Go through the list and state Kd for each entry.
1. DARPin® protein #9 (in TCE format) (designed binder, not shown: small tags and cut ends) MRGSHHHHHHGSDLGWKLLDAAEIGQDDEVRILLAAGADVNAKDKQGITPLHIAAAHGHLEIVEVLLKAGADVNAKDEIGRTPLHLAAFKGHLEIVEVLLKAGADVNAQDIIGETPADLAAVRGHEDIAEVLQKAA
2. DARPin® protein #1 (in TCE format) (designed binder, not shown: small tags and cut ends) MRGSHHHHHHGSDLGKKLLEAALEGQDDEVRELLKAGADVNAKDQEGYTPLHLAAALGHLEIVEVLLKAGADVNAKDSIGRTPLHLAAYKGHLEIVEVLLKAGADVNAQDLLGETPADLAAEQGHEDIAEVLQKAA
3. DARPin® protein #4 (in TCE format) (designed binder, not shown: small tags and cut ends) MRGSHHHHHHGSDLGKKLLQAARAGQLDEVRELLKAGADVNAKDEYGATPLHLAAYSGHLEIVEVLLKAGADVNAKDEWGRTPLHVAALSGHLEIVEVLLKAGADVNAKDHQGRTPLHLAALWGHLEIVEVLLKAVADVNAQDKSGKTPADLAARAGHQDIAEVLQKAA
4. DARPin® protein #8 (in TCE format) (designed binder, not shown: small tags and cut ends) MRGSHHHHHHGSDLGKKLLNAAHIGQDDEVRILLAAGADVNAKDIVGKTPLHIAAWLGHLEIVEVLLKAGADVNAKDDHGWTPLHIAAHVGHLEIVEVLLKAGADVNAQDNAGNTPADLVAFQGHEDIAEVLQKAA

Response given:
2.1
12
45
1

Go through the list and state Kd for each entry.
1. DARPin® protein #3 (in TCE format) (designed binder, not shown: small tags and cut ends) MRGSHHHHHHGSDLGKKLLQAARAGQLDEVRELLKAGADVNAKDQYGRTPLHLAAIKGHLEIVEVLLKAGADVNAKDSLGYTPLHLAAVEGPLEIVEVLLKAGADVNAKDAYGQTPLHIAAAWGHLEIVEVLLKAVADVNAQDKSGKTPADLAARAGHQDIAEVLQKAA
2. DARPin® protein #6 (in TCE format) (designed binder, not shown: small tags and cut ends) MRGSHHHHHHGSDLGEKLLEAALEGQDDEVRELLKAGADVNAKDQEGYTPLHLAAALGHLEIVEVLLKAGADVNAKDSIDRTPLHLAAYKGHLEIVEVLLKAGADVNAQDAAGQTPADLAAALGHEDIAEVLQKAA

Response given:
1. 0.52
2. 4.5
